Target: Ba/F3 EGFR-Del19/T790M (Homo sapiens, UniProt P00533, T790M, cells depend on it, form not given)
Sequence (P00533 with tags, fused parts or gaps DEL746-750/T790M, form open): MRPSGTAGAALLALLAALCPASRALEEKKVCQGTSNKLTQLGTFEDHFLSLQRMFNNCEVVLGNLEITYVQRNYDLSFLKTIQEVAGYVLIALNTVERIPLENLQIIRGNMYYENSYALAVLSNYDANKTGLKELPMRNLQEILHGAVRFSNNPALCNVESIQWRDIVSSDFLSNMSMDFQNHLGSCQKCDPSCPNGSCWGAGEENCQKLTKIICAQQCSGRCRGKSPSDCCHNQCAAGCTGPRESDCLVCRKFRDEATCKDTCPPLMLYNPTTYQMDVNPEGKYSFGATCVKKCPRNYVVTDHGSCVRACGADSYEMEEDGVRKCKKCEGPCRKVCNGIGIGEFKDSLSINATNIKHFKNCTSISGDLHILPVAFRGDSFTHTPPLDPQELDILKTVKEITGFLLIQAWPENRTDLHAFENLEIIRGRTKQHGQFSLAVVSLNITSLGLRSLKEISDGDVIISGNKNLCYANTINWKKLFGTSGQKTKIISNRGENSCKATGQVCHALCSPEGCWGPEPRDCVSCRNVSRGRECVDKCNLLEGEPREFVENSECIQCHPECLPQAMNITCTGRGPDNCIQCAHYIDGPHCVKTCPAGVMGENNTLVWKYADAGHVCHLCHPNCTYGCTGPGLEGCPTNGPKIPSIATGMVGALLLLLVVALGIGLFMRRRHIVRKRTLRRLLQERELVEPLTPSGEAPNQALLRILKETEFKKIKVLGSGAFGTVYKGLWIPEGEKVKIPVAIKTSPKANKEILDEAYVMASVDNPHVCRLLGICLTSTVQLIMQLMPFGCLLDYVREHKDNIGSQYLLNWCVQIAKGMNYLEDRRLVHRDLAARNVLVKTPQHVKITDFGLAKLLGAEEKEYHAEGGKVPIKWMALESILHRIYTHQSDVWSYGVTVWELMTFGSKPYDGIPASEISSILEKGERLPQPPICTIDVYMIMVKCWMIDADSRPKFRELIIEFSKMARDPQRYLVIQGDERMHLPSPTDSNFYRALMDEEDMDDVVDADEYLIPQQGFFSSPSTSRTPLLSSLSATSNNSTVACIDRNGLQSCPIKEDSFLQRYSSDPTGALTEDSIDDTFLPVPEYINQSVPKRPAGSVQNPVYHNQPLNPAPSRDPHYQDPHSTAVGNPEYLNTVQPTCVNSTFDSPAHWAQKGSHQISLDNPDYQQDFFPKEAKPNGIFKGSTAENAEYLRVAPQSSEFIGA
Assay: Ba/F3 viability assay (CellTiter-Glo), DT
Format: cell-based
Settings: anti-proliferation, read-out: BaF3 DT IC50
Endpoint: GI50

Molecule: C[C@H]1CCOc2c(cnn2C)-c2nccc(n2)Nc2cc3c(cn2)c(-c2csc(CN4CCN(C)CC4)n2)nn31 [(103)]
Endpoint: GI50
Measurement: < 10 nM
//
Molecule: CCN(CC)CCOc1cccc(-c2nn3c4cc(ncc24)Nc2ccnc(n2)-c2cnn(C)c2OCC[C@@H]3C)c1C [(158)]
Endpoint: GI50
Measurement: 100 to 1000 nM
//
Molecule: C[C@H]1CCOc2c(cnn2C)-c2nccc(n2)Nc2cc3c(cn2)c(-c2cccc(N4CCC(N5CCOCC5)CC4)c2)nn31 [(160)]
Endpoint: GI50
Measurement: < 10 nM
//
Molecule: CCn1cc(-c2nn3c4cc(ncc24)Nc2ccnc(n2)-c2cnn(C)c2OCC[C@@H]3C)cc1CN(C)C [(156)]
Endpoint: GI50
Measurement: < 10 nM
